Experiment: Plasma toxicokinetics in dogs, fourteen day repeat dose
Format: in vivo, dog
Settings: male, dog, plasma, po, 5 mg/kg, male dogs, Gr 4, 5.0 mg/kg, D14
experimental.endpoint: Tmax (min)
Give a bare numeral; the unit min is implied.

-- ask Field request: Tmax | item: CC[C@H]1CC2C[C@H]3c4[nH]c5ccc(O)cc5c4CCN(C2)C13
-- reply 54

* * *

Assay: Plasma toxicokinetics in dogs, fourteen day repeat dose
Format: in vivo, dog
Conditions: female, dog, plasma, po, 5 mg/kg, female dogs, Gr 4, 5.0 mg/kg, D14
experimental.endpoint: AUC(0-inf)
Remember to quote the unit after the number.

-- ask Field request: AUC(0-inf) | item: CC[C@H]1CC2C[C@H]3c4[nH]c5ccc(O)cc5c4CCN(C2)C13
-- reply 6280 ng·h/mL

* * *

Assay: Plasma toxicokinetics in dogs, fourteen day repeat dose
Type: in vivo, dog
Details: male, dog, plasma, po, 1 mg/kg, male dogs, Gr 3, 1.0 mg/kg, D1; read-out: AUC0-24 h
experimental.endpoint: AUC(0-t) (ng·h/mL)
Give a bare numeral; the unit ng·h/mL is implied.

-- ask Field request: AUC(0-t) | item: CC[C@H]1CC2C[C@H]3c4[nH]c5ccc(O)cc5c4CCN(C2)C13
-- reply 120

* * *

Assay: Plasma toxicokinetics in dogs, fourteen day repeat dose
Assay type: in vivo, dog
Conditions: female, dog, plasma, po, 0.5 mg/kg, female dogs, Gr 2, 0.5 mg/kg, D14; read-out: AUC0-24 h
Procedure: Noribogaine HCl was administered to groups of 4 male and 4 female dogs by single oral gavage daily for 14 days at doses of 0, 0.5, 1.0 and 5.0 mg/kg/day. An additional group of 4 male and 4 female dogs received either the vehicle control or 5.0 mg/kg/day for 14 days and were held for an additional 28 days after cessation of dosing to assess recovery from any potential drug-induced changes. […]
experimental.endpoint: AUC(0-t) (ng·h/mL)
Give a bare numeral; the unit ng·h/mL is implied.

-- ask Field request: AUC(0-t) | item: CC[C@H]1CC2C[C@H]3c4[nH]c5ccc(O)cc5c4CCN(C2)C13
-- reply 55

* * *

Experiment: Plasma toxicokinetics in dogs, fourteen day repeat dose
Assay type: in vivo, dog
Settings: female, dog, plasma, po, 5 mg/kg, female dogs, Gr 4, 5.0 mg/kg, D14; read-out: AUC0-last
experimental.endpoint: AUC(0-t)
Remember to quote the unit after the number.

-- ask Field request: AUC(0-t) | item: CC[C@H]1CC2C[C@H]3c4[nH]c5ccc(O)cc5c4CCN(C2)C13
-- reply 5950 ng·h/mL

* * *

Experiment: Plasma toxicokinetics in dogs, fourteen day repeat dose
Assay type: in vivo, dog
Conditions: male, dog, plasma, po, 1 mg/kg, male dogs, Gr 3, 1.0 mg/kg, D1
Protocol: Noribogaine HCl was administered to groups of 4 male and 4 female dogs by single oral gavage daily for 14 days at doses of 0, 0.5, 1.0 and 5.0 mg/kg/day. An additional group of 4 male and 4 female dogs received either the vehicle control or 5.0 mg/kg/day for 14 days and were held for an additional 28 days after cessation of dosing to assess recovery from any potential drug-induced changes. […]
experimental.endpoint: half-life (min)
Give a bare numeral; the unit min is implied.

-- ask Field request: half-life | item: CC[C@H]1CC2C[C@H]3c4[nH]c5ccc(O)cc5c4CCN(C2)C13
-- reply 72

* * *

Assay: Plasma toxicokinetics in dogs, fourteen day repeat dose
Assay type: in vivo, dog
Conditions: male, dog, plasma, po, 5 mg/kg, male dogs, Gr 4, 5.0 mg/kg, D1; read-out: Cmax
Experimental: Noribogaine HCl was administered to groups of 4 male and 4 female dogs by single oral gavage daily for 14 days at doses of 0, 0.5, 1.0 and 5.0 mg/kg/day. An additional group of 4 male and 4 female dogs received either the vehicle control or 5.0 mg/kg/day for 14 days and were held for an additional 28 days after cessation of dosing to assess recovery from any potential drug-induced changes. […]
experimental.endpoint: Cmax (ng/mL)
Give a bare numeral; the unit ng/mL is implied.

-- ask Field request: Cmax | item: CC[C@H]1CC2C[C@H]3c4[nH]c5ccc(O)cc5c4CCN(C2)C13
-- reply 693

* * *

Experiment: Plasma toxicokinetics in dogs, fourteen day repeat dose
Format: in vivo, dog
Conditions: male, dog, plasma, po, 1 mg/kg, male dogs, Gr 3, 1.0 mg/kg, D14; read-out: AUC0-24 h
experimental.endpoint: AUC(0-t)
Remember to quote the unit after the number.

-- ask Field request: AUC(0-t) | item: CC[C@H]1CC2C[C@H]3c4[nH]c5ccc(O)cc5c4CCN(C2)C13
-- reply 210 ng·h/mL

* * *

Assay: Plasma toxicokinetics in dogs, fourteen day repeat dose
Format: in vivo, dog
Details: female, dog, plasma, po, 5 mg/kg, female dogs, Gr 4, 5.0 mg/kg, D1; read-out: AUC0-last
experimental.endpoint: AUC(0-t) (ng·h/mL)
Give a bare numeral; the unit ng·h/mL is implied.

-- ask Field request: AUC(0-t) | item: CC[C@H]1CC2C[C@H]3c4[nH]c5ccc(O)cc5c4CCN(C2)C13 [noribogaine]
-- reply 3370

* * *

Experiment: Plasma toxicokinetics in dogs, fourteen day repeat dose
Assay type: in vivo, dog
Details: male, dog, plasma, po, 1 mg/kg, male dogs, Gr 3, 1.0 mg/kg, D14
experimental.endpoint: half-life

-- ask Field request: half-life | item: CC[C@H]1CC2C[C@H]3c4[nH]c5ccc(O)cc5c4CCN(C2)C13
-- reply 1.8 h

* * *

Experiment: Plasma toxicokinetics in dogs, fourteen day repeat dose
Type: in vivo, dog
Settings: male, dog, plasma, po, 5 mg/kg, male dogs, Gr 4, 5.0 mg/kg, D14; read-out: Cmax
experimental.endpoint: Cmax (ng/mL)
Give a bare numeral; the unit ng/mL is implied.

-- ask Field request: Cmax | item: CC[C@H]1CC2C[C@H]3c4[nH]c5ccc(O)cc5c4CCN(C2)C13
-- reply 716

* * *

Assay: Plasma toxicokinetics in dogs, fourteen day repeat dose
Format: in vivo, dog
Conditions: female, dog, plasma, po, 1 mg/kg, female dogs, Gr 3, 1.0 mg/kg, D1; read-out: AUC0-24 h
experimental.endpoint: AUC(0-t)

-- ask Field request: AUC(0-t) | item: CC[C@H]1CC2C[C@H]3c4[nH]c5ccc(O)cc5c4CCN(C2)C13
-- reply 176 ng·h/mL

* * *

Assay: Plasma toxicokinetics in dogs, fourteen day repeat dose
Format: in vivo, dog
Conditions: male, dog, plasma, po, 1 mg/kg, male dogs, Gr 3, 1.0 mg/kg, D14
experimental.endpoint: AUC(0-inf) (ng·h/mL)
Give a bare numeral; the unit ng·h/mL is implied.

-- ask Field request: AUC(0-inf) | item: CC[C@H]1CC2C[C@H]3c4[nH]c5ccc(O)cc5c4CCN(C2)C13 [noribogaine]
-- reply 196

* * *

Assay: Plasma toxicokinetics in dogs, fourteen day repeat dose
Type: in vivo, dog
Conditions: male, dog, plasma, po, 0.5 mg/kg, male dogs, Gr 2, 0.5 mg/kg, D14; read-out: Cmax
Procedure: Noribogaine HCl was administered to groups of 4 male and 4 female dogs by single oral gavage daily for 14 days at doses of 0, 0.5, 1.0 and 5.0 mg/kg/day. An additional group of 4 male and 4 female dogs received either the vehicle control or 5.0 mg/kg/day for 14 days and were held for an additional 28 days after cessation of dosing to assess recovery from any potential drug-induced changes. […]
experimental.endpoint: Cmax (ng/mL)
Give a bare numeral; the unit ng/mL is implied.

-- ask Field request: Cmax | item: CC[C@H]1CC2C[C@H]3c4[nH]c5ccc(O)cc5c4CCN(C2)C13 [noribogaine]
-- reply 29.4

* * *

Assay: Plasma toxicokinetics in dogs, fourteen day repeat dose
Assay type: in vivo, dog
Settings: female, dog, plasma, po, 0.5 mg/kg, female dogs, Gr 2, 0.5 mg/kg, D14
Description: Noribogaine HCl was administered to groups of 4 male and 4 female dogs by single oral gavage daily for 14 days at doses of 0, 0.5, 1.0 and 5.0 mg/kg/day. An additional group of 4 male and 4 female dogs received either the vehicle control or 5.0 mg/kg/day for 14 days and were held for an additional 28 days after cessation of dosing to assess recovery from any potential drug-induced changes. […]
experimental.endpoint: Tmax (h)
Give a bare numeral; the unit h is implied.

-- ask Field request: Tmax | item: CC[C@H]1CC2C[C@H]3c4[nH]c5ccc(O)cc5c4CCN(C2)C13
-- reply 1

* * *

Assay: Plasma toxicokinetics in dogs, fourteen day repeat dose
Assay type: in vivo, dog
Settings: male, dog, plasma, po, 1 mg/kg, male dogs, Gr 3, 1.0 mg/kg, D14; read-out: Cmax
experimental.endpoint: Cmax
Remember to quote the unit after the number.

-- ask Field request: Cmax | item: CC[C@H]1CC2C[C@H]3c4[nH]c5ccc(O)cc5c4CCN(C2)C13
-- reply 67.6 ng/mL

* * *

Assay: Plasma toxicokinetics in dogs, fourteen day repeat dose
Type: in vivo, dog
Settings: male, dog, plasma, po, 0.5 mg/kg, male dogs, Gr 2, 0.5 mg/kg, D1
experimental.endpoint: AUC(0-inf) (ng·h/mL)
Give a bare numeral; the unit ng·h/mL is implied.

-- ask Field request: AUC(0-inf) | item: CC[C@H]1CC2C[C@H]3c4[nH]c5ccc(O)cc5c4CCN(C2)C13
-- reply 67.8
